# Test system: HS 578T breast
# assay-overview: NCI-60 one-dose screen, 48 h (100 = growth as untreated, 0 = no growth, -100 = all killed)
# test-conditions: 10 µM unless noted
This is part of a sample that, as a whole, favours compounds with a hit. Of some 83,000 tested, about 20% had one in any assay. Activity calls are given as the source filed them. The calls were made as follows: active = growth percent below 10; inactive = the rest.
quantity-measured: growth

Some molecules with known growth results, for comparison:
O=C1NC(=NC23CC4CC(CC(C4)C2)C3)N/C1=C\c1ccc2ncccc2c1    -15.3% (active)
COc1ccc(-c2nc3ccccc3n2CC(=O)N=Nc2c(O)[nH]c3ccc(OC)cc23)cc1    30.3% (inactive)
Oc1cncc(-c2ccc3ncnc(N4CCc5cc(F)c(Cl)cc54)c3c2)c1    18.1% (inactive)
O=C1Nc2ccc(F)cc2/C1=C/C(=O)c1cc2ccccc2oc1=O    101% (inactive)
Cn1cc(-c2cc(N)n3nc(-c4c[nH]c5ccccc45)cc3n2)c2cc(Cl)ccc21    -21.2% (active)

Query :: Name the value of growth reported for `COc1ccc2c(c1)c(-c1cc(N)n3nc(-c4c[nH]c5ccccc45)cc3n1)cn2C` when tested on HS 578T breast.
Result :: -17.9% (active)

Query :: Name the value of growth reported for `CC(=O)C[n+]1cccc2c3ccccc3ccc21` when tested on HS 578T breast.
Result :: 102% (inactive)
